# targetEntity: HLA-A*1101 (human)
Exercise: for every item that follows, state its recorded relative binding ratio (IC50 of standard peptide / IC50 of test peptide).
Answers are plain numbers.

- binder: "GVSFSELVR (modifications not checked) [HPV16 E1 216 …]"
  endpointResult: 0.018
- binder: "ALLRYKCGK (modifications not checked) [HPV45 E1 peptide … (position 270, 9 amino acids)]"
  endpointResult: 0.14
- binder: "KDCATMCRH (modifications not checked) [HPV16 E1 403 …]"
  endpointResult: 0.0002
- binder: "SVAALYWYR (modifications not checked) [HPV18 E1 peptide … (position 322, 9 amino acids)]"
  endpointResult: 8.8

Provide relative binding ratio (IC50 of standard peptide / IC50 of test peptide) values for the following items, in order.
1. DCATMCRHY (modifications not checked) [HPV16 E1 404 …]
2. MLIQPPKLR (modifications not checked) [HPV31 E1 285 … (SEQ ID NO: 41814)]
3. CATMCRHYK (modifications not checked) [HPV16 E1 405 …]
4. FITFLGALK (modifications not checked) [HPV18 E1 460-468 peptide …]
5. NSNAAAFLK (modifications not checked) [HPV33 E1 379 peptide … (A11 motif peptide, 9 amino acids)]
6. LVRNFKSDK (modifications not checked) [HPV45 E1 215 peptide … (SEQ ID NO: 43696)]

Ans:
0.0001
0.0014
0.0098
0.037
0.37
0.0002
